Examples of compounds with documented growth follow.
# Tested on: COLO 205 colon
# Procedure Summary: NCI-60 one-dose screen, 48 h (100 = growth as untreated, 0 = no growth, -100 = all killed)
# Test Context: 10 µM unless noted
Compounds without any hit were thinned out: in the full panel of roughly 83,000, 20% have a hit.
Measurement Name: growth (%)

- Compound: "Cc1[nH]c(C(=O)Nc2ccccc2OCc2cccc(C(=O)NC3CCCNC3)c2)c(Cl)c1Cl (centres undefined)"
  Number: -33.2
- Compound: "COc1ccc([C@H]2C(=O)N(c3cc(OC)c(OC)c(OC)c3)[C@@H]2c2ccc(OC)c(O)c2)cc1"
  Number: -76.1
- Compound: "CC(C)Sc1nc(-c2ccccc2)c(C#N)c(N2CCOCC2)n1"
  Number: 74
- Compound: "O=C(/C=C/c1ccccc1Cl)Nc1ncc(Cc2cc(Cl)ccc2Cl)s1"
  Number: 5.37

----------
# System: MDA-MB-435 melanoma
# Procedure Summary: NCI-60 one-dose screen, 48 h (100 = growth as untreated, 0 = no growth, -100 = all killed)
# Test Context: 10 µM unless noted
Compounds without any hit were thinned out: in the full panel of roughly 83,000, 20% have a hit.
Measurement Name: growth (%)

- Compound: "O=c1c2cc(-c3ccc(F)cc3F)ccc2n(O)c(=O)n1-c1cccc(C(F)(F)F)c1"
  Target Of Assay: "MDA-MB-435 melanoma"
  Measurement Name: "growth"
  Reading Unit: "%"
  Number: 1.71
- Compound: "CCOC(=O)c1c(NC(=O)c2ccc(C(F)(F)F)cc2)sc2c3c(ccc12)OCN(C)C3"
  Target Of Assay: "MDA-MB-435 melanoma"
  Measurement Name: "growth"
  Reading Unit: "%"
  Number: -16.8
- Compound: "CN1CCN(Cc2ccc(NC(=O)c3cncc(C#Cc4cnc5ccc(N6CCOCC6)nn45)c3)cc2C(F)(F)F)CC1"
  Target Of Assay: "MDA-MB-435 melanoma"
  Measurement Name: "growth"
  Reading Unit: "%"
  Number: -65
- Compound: "C#C[C@]1(O)CC[C@H]2[C@@H]3CC=C4c5sc(Nc6cc(Cl)ccc6OC)nc5CC[C@]4(C)[C@H]3CC[C@@]21C"
  Target Of Assay: "MDA-MB-435 melanoma"
  Measurement Name: "growth"
  Reading Unit: "%"
  Number: -0.171
- Compound: "O=C1[C@H]2Cc3c([nH]c4ccccc34)[C@H](c3ccc(Br)cc3)N2C(=O)CN1C1CCN(CC2CCCCC2)CC1"
  Target Of Assay: "MDA-MB-435 melanoma"
  Measurement Name: "growth"
  Reading Unit: "%"
  Number: 85.1
- Compound: "NC1=NC2(CCCC2)N(c2ccc(S(=O)(=O)Nc3nccs3)cc2)C(N)=N1"
  Target Of Assay: "MDA-MB-435 melanoma"
  Measurement Name: "growth"
  Reading Unit: "%"
  Number: 107
- Compound: "CNc1sc(S(=O)(=O)NC)nc1S(=O)(=O)c1ccc(C)cc1"
  Target Of Assay: "MDA-MB-435 melanoma"
  Measurement Name: "growth"
  Reading Unit: "%"
  Number: 105
- Compound: "CC(C)(C)Nc1nc2c(OCCc3ccccc3)cccn2c1-c1cccc(Oc2ccccc2)c1"
  Target Of Assay: "MDA-MB-435 melanoma"
  Measurement Name: "growth"
  Reading Unit: "%"
  Number: 19.9
- Compound: "N#Cc1c(-c2cccs2)cc(-c2cnccn2)nc1SCC(=O)N/N=C/c1ccccc1"
  Target Of Assay: "MDA-MB-435 melanoma"
  Measurement Name: "growth"
  Reading Unit: "%"
  Number: 23.6
- Compound: "COc1cc(/C=N\\NC(=O)c2ccc3nc(-c4ccc(Br)cc4)[nH]c3c2)cc(OC)c1OC"
  Target Of Assay: "MDA-MB-435 melanoma"
  Measurement Name: "growth"
  Reading Unit: "%"
  Number: 52.5
- Compound: "Cn1cc(-c2nnc(N)nc2-c2c[nH]c3ccc(F)cc23)c2cc(Br)ccc21"
  Target Of Assay: "MDA-MB-435 melanoma"
  Measurement Name: "growth"
  Reading Unit: "%"
  Number: 3.84
- Compound: "CCOC(=O)c1ccc(NC2=CC(=O)C(C)=C(C)C2=O)cc1"
  Target Of Assay: "MDA-MB-435 melanoma"
  Measurement Name: "growth"
  Reading Unit: "%"
  Number: 44.2
- Compound: "CC(Nc1c(C#N)cnc2ccc(-c3cncc(-c4n[nH]c(=O)o4)c3)cc12)c1ccccc1 (stereo unspecified)"
  Target Of Assay: "MDA-MB-435 melanoma"
  Measurement Name: "growth"
  Reading Unit: "%"
  Number: 24
- Compound: "N#Cc1c(-c2cccs2)c(C#N)c(=O)n(Cc2nc3ccccc3[nH]2)c1N"
  Target Of Assay: "MDA-MB-435 melanoma"
  Measurement Name: "growth"
  Reading Unit: "%"
  Number: 110
- Compound: "Clc1ccc2[nH]cc(-c3nn4cc(-c5ccncc5)nc4s3)c2c1"
  Target Of Assay: "MDA-MB-435 melanoma"
  Measurement Name: "growth"
  Reading Unit: "%"
  Number: 51
- Compound: "O=C(/C=C/C=C/c1csc(Br)n1)NO"
  Target Of Assay: "MDA-MB-435 melanoma"
  Measurement Name: "growth"
  Reading Unit: "%"
  Number: 92.6
- Compound: "C#CCOc1ccc(/C=N/Nc2nc(-c3ccc(OC)cc3)cs2)cc1"
  Target Of Assay: "MDA-MB-435 melanoma"
  Measurement Name: "growth"
  Reading Unit: "%"
  Number: 79.3
- Compound: "Cn1cc(-c2nn3cc(-c4ccncc4)nc3s2)c2cc(F)ccc21"
  Target Of Assay: "MDA-MB-435 melanoma"
  Measurement Name: "growth"
  Reading Unit: "%"
  Number: 83.2
- Compound: "Brc1cc(-c2cc(-c3ccc4c(c3)OCCO4)[nH]n2)cs1"
  Target Of Assay: "MDA-MB-435 melanoma"
  Measurement Name: "growth"
  Reading Unit: "%"
  Number: -26.8
- Compound: "CCc1cc(OC(=O)N2CCN(CCC(C)(COC(C)(C)C)COC(C)(C)C)CC2)ccc1Nc1cc(-c2ccc(-n3cccn3)cc2)[nH]n1"
  Target Of Assay: "MDA-MB-435 melanoma"
  Measurement Name: "growth"
  Reading Unit: "%"
  Number: 85.3
- Compound: "OCC(Nc1ncnc2ccc(-c3cnc4cnccn34)cc12)c1ccccc1 (stereo unspecified)"
  Target Of Assay: "MDA-MB-435 melanoma"
  Measurement Name: "growth"
  Reading Unit: "%"
  Number: 90
- Compound: "CC(C)(C)c1cc(NC(=O)Nc2ccc(-c3cn4c5c(sc4n3)CCc3cn(CCCN4CCCCC4)cc3-5)cc2)no1"
  Target Of Assay: "MDA-MB-435 melanoma"
  Measurement Name: "growth"
  Reading Unit: "%"
  Number: -98.5
- Compound: "C/C(CC1(O)C(=O)Nc2ccccc21)=N\\O (stereo unspecified)"
  Target Of Assay: "MDA-MB-435 melanoma"
  Measurement Name: "growth"
  Reading Unit: "%"
  Number: 104
- Compound: "O=C(/C=C/c1ccccc1)c1cccc(O)c1"
  Target Of Assay: "MDA-MB-435 melanoma"
  Measurement Name: "growth"
  Reading Unit: "%"
  Number: 95.9
- Compound: "COc1cc(C(C)=C(c2ccc(OCCN(C)C)cc2)c2ccc(OCCN(C)C)cc2)ccc1F"
  Target Of Assay: "MDA-MB-435 melanoma"
  Measurement Name: "growth"
  Reading Unit: "%"
  Number: 108
- Compound: "O=[N+]([O-])c1ccc(NC(=S)NNC(=S)Nc2ccc(F)cc2)cc1"
  Target Of Assay: "MDA-MB-435 melanoma"
  Measurement Name: "growth"
  Reading Unit: "%"
  Number: 91

Measured values drawn from PubChem BioAssay (NCI) for this set.
